biological target: Kelch domain of human KEAP1 (321-624 aa) (Homo sapiens (Human), UniProt Q14145)
Sequence (Q14145 321-624): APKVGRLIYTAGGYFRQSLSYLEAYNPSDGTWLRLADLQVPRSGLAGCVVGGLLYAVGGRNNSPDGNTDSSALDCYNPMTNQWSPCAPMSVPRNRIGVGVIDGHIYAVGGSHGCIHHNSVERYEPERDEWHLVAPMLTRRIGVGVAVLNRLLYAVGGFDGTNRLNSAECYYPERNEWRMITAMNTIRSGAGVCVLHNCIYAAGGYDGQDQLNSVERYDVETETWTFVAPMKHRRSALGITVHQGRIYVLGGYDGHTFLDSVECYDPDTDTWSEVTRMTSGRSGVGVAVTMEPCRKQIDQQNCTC
Reported Kd values for a set of compounds

Use these answered entries as a reference point.
CCc1nnc2c(C)c(C(CC(=O)O)c3ccc(C)c(CN4C[C@H]5CCCN5c5ncccc5S4(=O)=O)c3)ccn12 (stereo partly drawn) [Example 281]    < 1 nM
Cc1ccc([C@H](CC(=O)O)c2ccn3c(C(F)(F)F)nnc3c2C)cc1CN1C[C@H]2CCCN2c2ncc(C#N)cc2S1(=O)=O (single isomer, unassigned) [Example 207]    < 1 nM

Shifting focus to the compound that follows.
Write down the reported Kd of Cc1ccc([C@@H](CC(=O)O)c2ccc3c(nnn3CC3CC3)c2C)cc1CN1C[C@]2(C)CCCN2c2ncccc2S1(=O)=O (single isomer, unassigned) [Example 13] , test system: Kelch domain of human KEAP1 (321-624 aa) (Homo sapiens (Human), UniProt Q14145). 0.079 nM

====

molecular target: Kelch domain of human KEAP1 (321-624 aa) (Homo sapiens (Human), UniProt Q14145)
measurement_kind: Kd (nM)

Cc1cnc2c(c1)S(=O)(=O)N(Cc1cc([C@H](c3ccn4c(C(F)(F)F)nnc4c3C)C(C)(C)C(=O)O)ccc1C)C[C@]1(CCOC1)O2 (single isomer, unassigned)    1230

(A) CCn1nnc2c(C)c([C@@H](c3ccc(C)c(CN4CC5(CCOCC5)Oc5ncc(C)cc5S4(=O)=O)n3)C(C)(C)C(=O)O)ccc21 (single isomer, unassigned)
(B) Cc1ccc([C@H](c2ccn3c(C(F)(F)F)nnc3c2C)C(C)(C)C(=O)O)cc1CN1CC2(CCOCC2)Oc2nc(OCCCO)ccc2S1(=O)=O (single isomer, unassigned)
(C) COc1ccc2c(n1)OC1(CCOCC1)CN(Cc1cc([C@H](c3ccn4c(C(F)F)nnc4c3C)C(C)(C)C(=O)O)ccc1C)S2(=O)=O (single isomer, unassigned)
Sequence the entries by Kd, beginning with the highest number. Hello, could you send the labels back in the order asked? Thank you. C, A, B
(C: 1610 nM, A: 343 nM, B: 0.97 nM)

====

target: Kelch domain of human KEAP1 (321-624 aa) (Homo sapiens (Human), UniProt Q14145); assay: KEAP1 KELCH ThermoFluor binding assay; details: KEAP Kelch […], 1,8-ANS, pH 7.0, average of results obtained, read-out: Tf Kd;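 further: Ligand-induced melting temperature shift of E. coli-expressed KEAP1 Kelch protein, Kd estimated from concentration-response curves of ΔTm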
measurement_kind: Kd (nM)

Cc1cnc2c(c1)S(=O)(=O)N(Cc1nc([C@H](c3ccn4c(C(F)F)nnc4c3C)C(C)(C)C(=O)O)ccc1C)CC1(COC1)O2 (single isomer, unassigned)    2980
Cc1ccc([C@H](c2ccc3c(nnn3C3CC3)c2C)C(C)(C)C(=O)O)cc1CN1CC2(CC2)Oc2nc(N[C@@H](C)CN3CCCCC3)c(C)cc2S1(=O)=O (single isomer, unassigned)    681
Cc1ccc([C@H](c2ccn3c(C(F)(F)F)nnc3c2C)C(C)(C)C(=O)O)cc1CN1CC2(CCOCC2)Oc2ncccc2S1(=O)=O (single isomer, unassigned)    2400

(1) Cc1cnc2c(c1)S(=O)(=O)N(Cc1cc(C(c3ccn4c(C(F)(F)F)nnc4c3C)C(C)(C)C(=O)O)cnc1C)CC1(CC1)O2 (single isomer, unassigned)
(2) Cc1cnc([C@H](c2ccn3c(C(F)F)nnc3c2C)C(C)(C)C(=O)O)cc1CN1CC2(CC2)Oc2nc(OCCN3CCCC3)c(C)cc2S1(=O)=O (single isomer, unassigned)
Of 1 and 2 , whose reported Kd is the larger number? Give the label under which the chosen entry appears. 1

====

# Kelch domain of human KEAP1 (321-624 aa) (Homo sapiens (Human), UniProt Q14145): Kd values follow
measurement_kind: Kd (nM)

Cc1ccc([C@H](CC(=O)O)c2ccn3c(C(F)(F)F)nnc3c2C)cc1CN1CC(C)(C)Oc2ccccc2S1(=O)=O (single isomer, unassigned)    1.65

(P) Cc1ccc(C(CC(=O)O)c2ccc3c(nnn3CC3CC3)c2C)cc1CN1C[C@@]2(C)CCCN2c2ncccc2S1(=O)=O (stereo in doubt)
(Q) Cc1ccc([C@H](CC(=O)O)c2ccn3c(C(F)F)nnc3c2C)cc1CN1CC2(CC2)Oc2ncc(C(N)=O)cc2S1(=O)=O (single isomer, unassigned)
Sorting ascending by Kd, which comes first: P or Q ? Give the label under which the chosen entry appears. P

====

# Kelch domain of human KEAP1 (321-624 aa) (Homo sapiens (Human), UniProt Q14145): Kd values follow
measurement_kind: Kd (nM)

(a) Cc1ccc([C@H](CC(=O)O)c2ccc3c(nnn3C)c2C(F)F)cc1CN1CC2CCCN2c2ncccc2S1(=O)=O (single isomer, unassigned) [Example 73]
(b) Cc1ccc([C@@H](CC(=O)O)c2ccc3c(nnn3C3CC3)c2C)cc1CN1C[C@@]2(C)CCCN2c2ncccc2S1(=O)=O (single isomer, unassigned) [Example 223]
Of a and b , whose reported Kd is the larger number? Give the label under which the chosen entry appears. b
(b: 190 nM, a: 3 nM)

====

biological target: Kelch domain of human KEAP1 (321-624 aa) (Homo sapiens (Human))
measurement_kind: Kd

Use these answered entries as a reference point.
Cc1ccc([C@H](CC(=O)O)c2ccn3c(C(F)F)nnc3c2C)cc1CN1C[C@@H]2COCCN2c2ncccc2S1(=O)=O (single isomer, unassigned) [Example 458]    < 1 nM
Cc1ccc([C@H](CC(=O)O)c2ccn3c(C(F)(F)F)nnc3c2C)nc1CN1CC2(COC2)Oc2ncccc2S1(=O)=O (single isomer, unassigned) [Example 495]    < 1 nM

Shifting focus to the compound that follows.
Write down the reported Kd of Cc1ccc([C@@H](CC(=O)O)c2ccn3c(C(F)(F)F)nnc3c2C)nc1CN1CC2(CC2)Oc2ncccc2S1(=O)=O (single isomer, unassigned) [Example 482] , test system: Kelch domain of human KEAP1 (321-624 aa) (Homo sapiens (Human)). < 1 nM

====

pKd: −log10 of the molar value.
# Kelch domain of human KEAP1 (321-624 aa) (Homo sapiens (Human), UniProt Q14145): pKd values follow
measurement_kind: pKd

Cc1ncc([C@@H](CC(=O)O)c2ccn3c(C(F)(F)F)nnc3c2C)cc1CN1CC2(CCOCC2)Oc2ncccc2S1(=O)=O (single isomer, unassigned)    7.83

(1) Cc1ccc([C@@H](CC(=O)O)c2ccn3c(C(F)(F)F)nnc3c2C)cc1CN1CC2(CC2)N(C)c2ncccc2S1(=O)=O (single isomer, unassigned)
(2) Cc1ccc([C@H](CC(=O)O)c2ccn3c(C(F)(F)F)nnc3c2C)cc1CN1CC2(COC2)Oc2ccccc2S1(=O)=O (single isomer, unassigned)
(3) Cc1cnc2c(c1)S(=O)(=O)N(Cc1cc([C@H](CC(=O)O)c3ccn4c(C(F)(F)F)nnc4c3C)cnc1C)CC1(CC1)O2 (single isomer, unassigned)
(4) Cc1ccc([C@H](c2ccn3c(C(F)(F)F)nnc3c2C)C(C)(C)C(=O)O)cc1CN1CC2(CNC2)Oc2ncccc2S1(=O)=O (single isomer, unassigned)
(5) Cc1cnc2c(c1)S(=O)(=O)N(Cc1cc([C@@H](c3ccc4c(nnn4C4CC4)c3C)C(C)(C)C(=O)O)cnc1C)CC1(CCOCC1)O2 (single isomer, unassigned)
Put these in order: smallest pKd first, largest last. Hello, could you send the labels back in the order asked? Thank you. 4, 5, 3, 1, 2
(4: 4.10, 5: 4.77, 3: 7.23, 1: 7.92, 2: 9.76)

====

pKd: −log10 of the molar value.
# Kelch domain of human KEAP1 (321-624 aa) (Homo sapiens (Human)): pKd values follow

Cc1cnc2c(c1)S(=O)(=O)N(Cc1cc([C@@H](c3ccc4c(nnn4C4CC4)c3C)C(C)(C)C(=O)O)cnc1C)CC1(COC1)O2 (single isomer, unassigned)    > 9.00
Cc1ccc([C@@H](c2ccc3c(nnn3CC3CC3)c2C)C(C)(C)C(=O)O)cc1CN1CC2(CCOCC2)Oc2ncccc2S1(=O)=O (single isomer, unassigned)    > 9.00
Cc1ccc([C@H](CC(=O)O)c2ccn3c(C4CC4)nnc3c2C)cc1CN1C[C@H]2CCCN2c2ncccc2S1(=O)=O (single isomer, unassigned)    > 9.00

Write down the reported pKd of Cc1ccc([C@H](c2ccn3c(C(F)(F)F)nnc3c2C)C(C)(C)C(=O)O)cc1CN1CC2(CCNCC2)Oc2ncccc2S1(=O)=O (single isomer, unassigned) , test system: Kelch domain of human KEAP1 (321-624 aa) (Homo sapiens (Human)). < 5.00

Write down the reported pKd of Cc1ccc([C@@H](CC(=O)O)c2ccn3c(C(F)F)nnc3c2C)cc1CN1C[C@H]2COCCN2c2ncccc2S1(=O)=O (single isomer, unassigned) , test system: Kelch domain of human KEAP1 (321-624 aa) (Homo sapiens (Human)). 7.86

Write down the reported pKd of Cc1ccc([C@@H](c2ccn3c(C(F)(F)F)nnc3c2C)C(C)(C)C(=O)O)cc1CN1CC2(CC2)Oc2nc(OCCN3CCCCC3)c(C)cc2S1(=O)=O (single isomer, unassigned) , test system: Kelch domain of human KEAP1 (321-624 aa) (Homo sapiens (Human)). > 9.00

Write down the reported pKd of Cc1ccc([C@H](CC(=O)O)c2ccn3c(C(F)(F)F)nnc3c2)cc1CN1C[C@@H]2CCCN2c2ncccc2S1(=O)=O (single isomer, unassigned) , test system: Kelch domain of human KEAP1 (321-624 aa) (Homo sapiens (Human)). > 9.00

Write down the reported pKd of Cc1ncc([C@@H](c2ccc3c(nnn3C3CC3)c2C)C(C)(C)C(=O)O)cc1CN1CC2(COC2)Oc2ncccc2S1(=O)=O (single isomer, unassigned) , test system: Kelch domain of human KEAP1 (321-624 aa) (Homo sapiens (Human)). > 9.00

Write down the reported pKd of Cc1ccc([C@@H](CC(=O)O)c2ccn3c(C(F)(F)F)nnc3c2C)cc1CN1C[C@H]2CN(C)CCN2c2ncccc2S1(=O)=O (single isomer, unassigned) , test system: Kelch domain of human KEAP1 (321-624 aa) (Homo sapiens (Human)). 6.74

Write down the reported pKd of Cc1ccc([C@@H](CC(=O)O)c2ccn3c(C(F)(F)F)nnc3c2C)cc1CN1C[C@@H]2CCN2c2ncccc2S1(=O)=O (single isomer, unassigned) , test system: Kelch domain of human KEAP1 (321-624 aa) (Homo sapiens (Human)). 8.59

Write down the reported pKd of Cc1ccc([C@H](c2ccn3c(C(F)(F)F)nnc3c2C)C(C)(C)C(=O)O)cc1CN1CC2(CCOCC2)Oc2nc(CCC(=O)NCCO)ccc2S1(=O)=O (single isomer, unassigned) , test system: Kelch domain of human KEAP1 (321-624 aa) (Homo sapiens (Human)). > 9.00

The reported numbers originate from patent US10947252B2.
